Test: Leishmania major promastigote growth inhibition, primary screen (AID 1063);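 further: promastigotes grown with compound for 44 hours at 28 °C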
Conditions: Leishmania major promastigotes, resazurin fluorescence viability; at 10 µM; hits give high values
In all, about 200,000 compounds went through this assay and about 18,000 (9%) were called active. This is one part of a sample in which actives are shown more often than they occur.
Provide the recorded inhibition for the entries that follow.

Previously resolved entries follow.
# compound, inhibition
measured = [
    ("Cc1[nH]c(=O)c(C(=O)/C=C/c2ccccc2)c2c1CCCC2", "98.8% (active)"),
    ("C=C(C)C1CC=C(C)/C(=N/NC(=O)CCCNc2cccc(C)c2)C1 (stereo unspecified)", "-1.55% (inactive)"),
    ("CCOC(=O)N1CCN(C(=O)CSc2nc(C)nc3c2c(=O)n(C)c(=O)n3C)CC1", "8.12% (inactive)"),
    ("Cc1nc(N)c(Br)c(C)c1Br", "1.28% (inactive)"),
    ("COc1ccc(/C=C2\\CCc3ccccc3C2=O)c(OC)c1OC", "8.72% (inactive)"),
]

Here are 3 compounds. What values of inhibition were reported for them?
1. O=C1NC(=O)C2C1C(c1ccc([N+](=O)[O-])cc1)=NN2Cc1ccccc1 (stereo unspecified)
2. COc1ccc(C2SCCN2S(=O)(=O)c2ccccc2)cc1OC (stereo unspecified)
3. c1ccc2c(NCC3CCCO3)nc(-c3ccncc3)nc2c1 (stereo unspecified)

Reply:
1: -2.02% (inactive); 2: 22.3% (inactive); 3: 3.5% (inactive)

Here are 4 compounds. What values of inhibition were reported for them?
1. Cn1c(=NC(=O)c2ccc3c(c2)OCCO3)sc2cc(S(C)(=O)=O)ccc21
2. COc1ccc(NS(=O)(=O)c2cc(NC(=O)CC(=O)c3ccc([N+](=O)[O-])cc3)ccc2C)cc1
3. CCC(CC)NC(=O)CSc1nnc(-c2c[nH]c3ccccc23)o1
4. O=C(Nc1ccc2c(c1)C(=O)OC2)Nc1cccc2ccccc12

Reply:
1. -9.12% (inactive)
2. 68.3% (active)
3. 6.71% (inactive)
4. -3.46% (inactive)

Here are 8 compounds. What values of inhibition were reported for them?
1. CCn1cc(CNC(=O)c2cc([N+](=O)[O-])c(C)c([N+](=O)[O-])c2)cn1
2. CCOC(=O)C1(Cc2ccc(Cl)cc2)CCN(C(=O)C2=NNC(=O)CC2)CC1
3. COc1ccc(C2NC(=S)NC3=C2CCc2ccccc23)cc1OC (stereo unspecified)
4. N#Cc1c(-c2ccc(Cl)cc2)c2c([nH]c1=S)CCCC2
5. O=[N+]([O-])c1cccc(/C([O-])=C(/C(=S)Nc2ccccc2F)[n+]2ccccc2)c1
6. COc1ccc(S(=O)(=O)NCC2CCCN(C(=O)c3occc3C)C2)cc1 (stereo unspecified)
7. C/C(=N\OC(=O)c1ccccc1)c1c(C)nc2cc(C)ccn12
8. Cc1nc(-c2ccccc2)sc1C(=O)/C=C/c1ccccc1

Reply:
18.8% (inactive)
0.36% (inactive)
57.7% (active)
-2.73% (inactive)
-0.54% (inactive)
-1.89% (inactive)
5.76% (inactive)
48.9% (inactive)

Ask: What does the record list as inhibition for Cc1nccn1CCCNC(=O)CC1C(=O)NCCN1Cc1ccc(Cl)c(F)c1 (stereo unspecified) ?
Reply: 5.03% (inactive)

----------
Assay: Leishmania major promastigote growth inhibition, primary screen (AID 1063);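 further: promastigotes grown with compound for 44 hours at 28 °C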
Conditions: Leishmania major promastigotes, resazurin fluorescence viability; at 10 µM
Among all 200,000 compounds or so, about 18,000 (9%) were called active. No stated cut-off is given here; in the data, active means inhibition above about 50%; inactive means the rest. Shown is part of a subset that was picked to be rich in actives.
Answer with one of the outcomes given here: Yes (active), No (inactive)

Please review the entries below; each comes with its answer.
# compound, cat
rows = [
    ("Cc1noc(/C=C/N(C)C)c1S(=O)(=O)N1CCCC(C(=O)NCc2ccco2)C1 (configuration not stated)", "No"),
    ("Cc1noc(/C=C/c2ccco2)c1S(=O)(=O)N1CCC(C(=O)N2CCc3ccccc32)CC1", "Yes"),
    ("Cc1nc2nc[nH]n2c(=O)c1C/C=C/c1ccccc1", "No"),
    ("CC(=O)Nc1ccc(S(=O)(=O)Nc2nccc(/C=C/c3ccccc3F)n2)cc1", "No"),
    ("CCCOC(=O)c1c(NC(=O)c2cnn3c2NC(c2ccccc2)CC3C(F)(F)F)sc2c1CCCC2 (configuration not stated)", "No"),
    ("CCc1c(C)nc2cc(C)[nH]n2c1=O", "Yes"),
    ("Cc1nnc(SCc2cccc(Cl)c2)n(N)c1=O", "No"),
    ("Cc1ccc(NC(=O)CSc2nnc(CNC(=O)c3ccccc3F)o2)cc1", "No"),
    ("O=C(O)c1ccc(NC(=O)c2cn(-c3ccccc3)nc2-c2ccc(Cl)cc2)cc1", "No"),
    ("CC(=O)N/N=C(\\C)c1ccc(Br)cc1Br", "No"),
]

Ask: Any idea what this test logged for CCCCCCCC1(C)NC(=O)N(CC(=O)Nc2cc(C)on2)C1=O (configuration not stated) ?
Reply: No

Ask: Any idea what this test logged for "O=C(NNC(=S)NC(=O)c1cn(-c2ccccc2)nc1-c1ccccc1)c1ccncc1" ?
Reply: Yes

Ask: Any idea what this test logged for "Cc1nn2cc(-c3ccc(Cl)cc3)cnc2c1Br" ?
Reply: No

Ask: Any idea what this test logged for "O=C(NCc1cccnc1)c1cn(-c2ccccc2)nc1-c1cccs1" ?
Reply: No

Ask: Any idea what this test logged for "CCc1c(C)nc2cc(-c3cccs3)[nH]n2c1=O" ?
Reply: No

Ask: Any idea what this test logged for "CCOC(=O)C1CCN(C(=O)C2CCN(S(=O)(=O)c3c(C)noc3C)CC2)CC1" ?
Reply: No

Ask: Any idea what this test logged for "C=CCOCCN(C)C1=NS(=O)(=O)c2ccccc21" ?
Reply: No

----------
Test: Leishmania major promastigote growth inhibition, primary screen (AID 1063);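 further: promastigotes grown with compound for 44 hours at 28 °C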
Settings: Leishmania major promastigotes, resazurin fluorescence viability; at 10 µM
Screen size: about 200,000 compounds; about 18,000 (9%) were called active. Cut-off read from the data, not from the text of the source: active = inhibition above about 50%; inactive = the rest. The full list was thinned out, with actives kept by preference.
Answer with one of the outcomes given here: active, inactive

# compound, cat
data = [
    ("O=C(c1ccc(N2CCOCC2)c([N+](=O)[O-])c1)N1CCN(S(=O)(=O)c2cccs2)CC1", "inactive"),
    ("Cc1cccn2c(=O)c3cc(C(=O)N4COCC4(C)C)n(C)c3nc12", "active"),
    ("Cc1[nH]c2ccccc2c1C(=O)CSCC(=O)O", "inactive"),
]

Ask: Any idea what this test logged for "CCOc1ccc(C(=O)Nc2nccs2)cc1[N+](=O)[O-]" ?
Reply: inactive

Ask: Any idea what this test logged for Cc1ccccc1C(OCCN(C)C)C1CCCCC1 (configuration not stated) ?
Reply: inactive

Ask: Any idea what this test logged for "O=C(/C=C/c1ccccc1)N/C(=C/c1ccccc1)C(=O)Nc1ccccc1O" ?
Reply: inactive

Ask: Any idea what this test logged for "Cc1ccccc1NC(=O)CSC1=NCCN1" ?
Reply: inactive

----------
Test: Leishmania major promastigote growth inhibition, primary screen (AID 1063);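 further: promastigotes grown with compound for 44 hours at 28 °C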
Settings: Leishmania major promastigotes, resazurin fluorescence viability; at 10 µM
The whole screen tested about 200,000 compounds, of which about 18,000 (9%) were called active. No stated cut-off is given here; in the data, active means inhibition above about 50%; inactive means the rest. The full list was thinned out, with actives kept by preference.
Answer with one of the outcomes given here: True = active, False = inactive

Please review the entries below; each comes with its answer.
# compound, cat
measured = [
    ("NC(=O)COC(=O)c1sc2cc(F)ccc2c1Cl", "False"),
    ("COC(=O)C(NS(=O)(=O)c1ccc(F)cc1)c1ccccc1 (stereo not drawn)", "False"),
    ("CC(=O)NC(Cc1ccccc1)C(=O)NC1CCN(c2ncccc2[N+](=O)[O-])CC1 (stereo not drawn)", "True"),
]

Ask: Any idea what this test logged for "Cc1nc([N+](=O)[O-])cn1CC(=O)Nc1ccc2c(c1)OCO2" ?
Reply: False

Ask: Any idea what this test logged for COCc1c(C(=O)N/N=C/C2CC=CCC2)nnn1-c1nonc1N (stereo not drawn) ?
Reply: False

Ask: Any idea what this test logged for CNC(=S)N1CCC(NC(=O)C(Cc2ccc(F)cc2)NC(C)=O)CC1 (stereo not drawn) ?
Reply: False

----------
Provide the recorded inhibition for the entries that follow.
Test: Leishmania major promastigote growth inhibition, primary screen (AID 1063);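 further: promastigotes grown with compound for 44 hours at 28 °C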
Settings: Leishmania major promastigotes, resazurin fluorescence viability; at 10 µM; hits give high values
Among all 200,000 compounds or so, about 18,000 (9%) were called active. Shown is part of a subset that was picked to be rich in actives.
One number for each entry, in %.

Previously resolved entries follow.
# compound, inhibition, %
data = [
    ("CCc1ccccc1NC(=O)CN(C)C(=O)COc1ccc(C)nc1[N+](=O)[O-]", 57.1),
    ("O=C(Nc1ccc(S(=O)(=O)N2CCCC2)cc1Cl)C1=COCCO1", 13.3),
    ("COc1ccc(C(=O)NC(=O)CSc2nnc(-c3ccco3)n2-c2ccccc2)cc1", -4.51),
]

Here are 5 compounds. What values of inhibition were reported for them?
1. CC(C)Oc1ccc(CCc2nnc(SCC(=O)O)n2-c2ccccc2)cc1
2. O=[N+]([O-])c1cc(C(F)(F)F)ccc1NN=C1CCCC1
3. Cc1csc(CN(C)C(=O)CC2C(=O)NCCN2CC(C)(C)C)n1 (configuration not stated)
4. Cc1ccccc1NC(=O)c1ccc(COc2ccc3c(C)cc(=O)oc3c2)cc1
5. Cc1ccc(C(=O)OCC(=O)NCc2ccc3c(c2)OCO3)s1

Reply:
1: -8.77; 2: -5.08; 3: -1.56; 4: -4.07; 5: -5.96

Here are 2 compounds. What values of inhibition were reported for them?
1. NC(=O)COC(=O)c1cc(S(=O)(=O)N2CCN(c3ccccc3)CC2)ccc1Cl
2. COC(=O)c1ccc(NC(=O)Nc2ccc(C)cc2)cc1

Reply:
1: -1.75; 2: 91.7

Here are 7 compounds. What values of inhibition were reported for them?
1. O=C(NCC1CCCO1)C1CCN(C2CCN(C(=O)C3CCCCC3)CC2)CC1 (configuration not stated)
2. COc1ccc([N+](=O)[O-])cc1NC(=O)CC1SC(=Nc2cccc(C)c2C)N(/N=C(\C)c2ccc(C)cc2)C1=O (configuration not stated)
3. COc1ccc(C(=O)Nc2ccc(-n3nncc3C(C)(C)C)cc2)cc1
4. COCC(C)NCc1cc(Br)ccc1OC (configuration not stated)
5. C/C(=C\c1ccco1)CN1CCC(N2CCC(C(=O)N3CCOCC3)CC2)CC1
6. O=C(C1CCN(C2CCN(Cc3ccc4cc(F)ccc4n3)CC2)CC1)N1CCCC1
7. Cc1onc(-c2ccccc2)c1C(=O)N1CCOCC1

Reply:
1: -2.22; 2: 30.7; 3: -0.36; 4: -1.49; 5: 77.8; 6: 48.3; 7: 0.76
